assay: NCI Yeast Anticancer Drug Screen. Data for the rad50EPP+ strain (AID 151);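 further: 0% = growth of vehicle-treated control cultures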; details: S. cerevisiae rad50 mutant strain, at 11.0 µM, active compounds read high
Compounds without any hit were thinned out: in the full panel of roughly 79,000, 15% have a hit.
MEASURE_NAME: growth inhibition (%)
Answer with a number only, understood to be in %.

Examples from the recorded data:
INSERT INTO results (compound, measure_name, test_result) VALUES
  ('CCCCCCCCCC(=O)N(CCC)CCC', 'growth inhibition', 11),
  ('CC(=O)N1C=Cc2c(c(C)c3c([nH]c4ccccc43)c2C)C1', 'growth inhibition', 94),
  ('CCOC(=S)SSSC(=S)OCC', 'growth inhibition', 93),
  ('CCCCS(=O)(=O)Nc1ccc(Nc2c3ccccc3nc3ccccc23)c(OC)c1', 'growth inhibition', 10),
  ('CCN(CC)CC(=O)c1ccc2cc(Cl)c3ccccc3c2c1', 'growth inhibition', 98);

// query Param item = CCC[CH2][Ge]([CH2]CCC)([CH2]CCC)[O]C(=O)C(O)c1ccccc1 (stereo not drawn) ; retrieve measured growth inhibition.
// result 8

// query Return reported growth inhibition; argument: O=S(=O)(NC1CCCC(c2ccccc2)C1)c1ccccc1 (stereo not drawn)
// result -1

// query Reported growth inhibition for COC(=N)c1ccc(O)c(C)c1 : what is it?
// result 5

Values from PubChem BioAssay (NCI)
